# Test system: PC-3 prostrate cancer cell line
# Experiment: In vitro anticancer activity, MTT assay
# Format: cell-based, human
# Run parameters: prostrate cancer cell line; MTT, 48 h continuous drug exposure
Can you tell me IC50 for the items I'm about to list?
Give bare numbers, in µM.

Some solved cases for reference:
{"Compound": "COc1cc2c(cc1O)N=CC1CCCN1C2=O (stereo not drawn) [DC-81, reference compound]", "Measured value": 14.2}
{"Compound": "COc1cc2cc3c(cc2cc1OCCN1CCN(c2ncccn2)CC1)N=C[C@@H]1CCCN1C3=O [13a]", "Measured value": 0.08}
{"Compound": "COc1cc2cc3c(cc2cc1OCCN1CCN(c2ccccc2)CC1)N=C[C@@H]1CCCN1C3=O", "Measured value": 1.6}
{"Compound": "COc1cc2cc3c(cc2cc1OCCN1CCN(Cc2ccc4c(c2)OCO4)CC1)N=C[C@@H]1CCCN1C3=O", "Measured value": 0.64}
{"Compound": "COc1cc2cc3c(cc2cc1OCCN1CCN(c2ccccn2)CC1)N=C[C@@H]1CCCN1C3=O [12a]", "Measured value": 0.1}

Here is the next item to consider.
Prompt: What value of IC50 on PC-3 prostrate cancer cell line does "COc1cc2cc3c(cc2cc1OCCN1CCN(C(C)=O)CC1)N=C[C@@H]1CCCN1C3=O" have?
Completion: 13.5

* * *

# Tested on: HEPG2 liver cancer cell line
# Experiment: In vitro anticancer activity, MTT assay
# Format: cell-based, human
# Run parameters: Homo sapiens, HepG2; liver cancer cell line; MTT, 48 h continuous drug exposure; read-out: IC50 HEPG2
Metric: IC50 (µM)
Numbers only, in µM.

{"Compound": "COc1cc2cc3c(cc2cc1OCCN1CCN(c2ncccn2)CC1)C(=O)N1CCC[C@H]1C=N3 [24a]", "Measured value": 1.04}
{"Compound": "COc1cc2cc3c(cc2cc1OCCN1CCN(c2ccc(F)cc2)CC1)C(=O)N1CCC[C@H]1C=N3 [20a]", "Measured value": 4.03}
{"Compound": "CCN1CCN(CCOc2cc3cc4c(cc3cc2OC)N=C[C@@H]2CCCN2C4=O)CC1 [15a]", "Measured value": 0.2}
{"Compound": "COc1cc2cc3c(cc2cc1OCCN1CCN(c2ccccn2)CC1)C(=O)N1CCC[C@H]1C=N3 [23a]", "Measured value": 0.04}

Here is the next item to consider.
Prompt: Sample COc1cc2cc3c(cc2cc1OCCN1CCN(c2ccccc2)CC1)C(=O)N1CCC[C@H]1C=N3 [19a] — what was its IC50?
Completion: 0.04

* * *

# Test system: NCIH460 large cell lung cancer cell line
# Experiment: In vitro anticancer activity, MTT assay
# Format: cell-based, human
# Run parameters: large cell lung cancer cell line; MTT, 48 h continuous drug exposure
Metric: pIC50
Give bare numbers, as −log10 of the molar value.

{"Molecule": "COc1cc2cc3c(cc2cc1OCCN1CCN(Cc2ccc4c(c2)OCO4)CC1)N=C[C@@H]1CCCN1C3=O", "pIC50": 7.10}

Could I get pIC50 for every one of these entries?
1. COc1cc2cc3c(cc2cc1OCCN1CCN(C(C)=O)CC1)N=C[C@@H]1CCCN1C3=O
2. COc1cc2c(cc1O)N=CC1CCCN1C2=O (stereo not drawn) [DC-81, reference compound]
3. COc1cc2cc3c(cc2cc1OCCN1CCN(c2ccccn2)CC1)N=C[C@@H]1CCCN1C3=O [12a]
4. COc1cc2cc3c(cc2cc1OCCN1CCN(c2ccccc2)CC1)N=C[C@@H]1CCCN1C3=O
5. COc1cc2cc3c(cc2cc1OCCN1CCN(c2ncccn2)CC1)N=C[C@@H]1CCCN1C3=O [13a]

Completion:
[5.77, 5.05, 6.62, 6.37, 6.59]
